# System: MDCK cells
# conditionDetails: dog
// values below are reported CC50
Write the answer as a number in µM, unit excluded.

smilesEntry	valueUnit	CC50
CC#Cc1ncnc2c1ccn2[C@@H]1O[C@H](CO)[C@@H](O)[C@H]1O	µM	4.9

IN: Which CC50 is listed for OC[C@H]1O[C@@H](n2ccc3c(C#Cc4ccc(Cl)cc4)ncnc32)[C@H](O)[C@@H]1O ?
OUT: 3.2

IN: Which CC50 is listed for CCCC#Cc1ncnc2c1ccn2[C@@H]1O[C@H](CO)[C@@H](O)[C@H]1O ?
OUT: 5.1

IN: Which CC50 is listed for CCc1ncnc2c1c(F)cn2[C@@H]1O[C@H](CO)[C@@H](O)[C@H]1O ?
OUT: 43
